Tested on: OVCAR-5 ovarian
Assay Protocol: NCI-60 one-dose screen, 48 h (100 = growth as untreated, 0 = no growth, -100 = all killed)
Condition Notes: 10 µM unless noted
The panel holds about 83,000 compounds, 20% with a hit somewhere; the sample as a whole holds those more often.
Please use the following growth ranges when assigning a class: low end (below 40%), middle (40% to below 80%), high end (80% or more)

Each compound maps to one class by growth. Which class for COc1cccc(-c2nc(Nc3ccc(S(N)(=O)=O)cc3)c3ccccc3n2)c1 ?
middle

Each compound maps to one class by growth. Which class for C#CCOc1ccc(/C=N/Nc2nc(-c3ccc(Cl)cc3)cs2)cc1OC ?
high end

Each compound maps to one class by growth. Which class for CN1CCN(c2ccc(C(=O)/C=C/c3cc(C(F)(F)F)cc(C(F)(F)F)c3)cc2)CC1 ?
low end

Each compound maps to one class by growth. Which class for COc1cc(/C=C/C(=O)c2nnn(-c3ccc(Cl)cc3)c2C)cc(OC)c1OC ?
middle

Each compound maps to one class by growth. Which class for CCOC(=O)/C=C/c1cccc2c1C(=O)NC(C)(c1cc3cc(Br)ccc3oc1=O)N2 (centres undefined) ?
middle

Each compound maps to one class by growth. Which class for O=C(O)c1ccc(-c2ccc(/C=N/NC(=O)c3[nH]c4ccc(Br)cc4c3-c3ccccc3)s2)cc1 ?
low end

Each compound maps to one class by growth. Which class for O=C(Cn1c(/C=C/c2cccc([N+](=O)[O-])c2)nc2ccccc2c1=O)Nc1ccccc1 ?
high end

Switching to the query record.
Each compound maps to one class by growth. Which class for CC1(C)CC[C@]2(C(=O)O)CC[C@]3(C)C(=CCC4[C@@]5(C)C[C@@H](O)[C@@H]6OC(c7ccc(F)cc7)OC[C@@]6(C)C5CC[C@]43C)C2C1 (some centres undefined) ?
middle

* * *

Test system: CAKI-1 renal
Assay Protocol: NCI-60 one-dose screen, 48 h (100 = growth as untreated, 0 = no growth, -100 = all killed)
Condition Notes: 10 µM unless noted
The panel holds about 83,000 compounds, 20% with a hit somewhere; the sample as a whole holds those more often.
One threshold, 60%, splits the recorded growth values: lower ones are y, equal or higher ones are n.

Recorded results for 5 compounds are shown here.
Does Cc1ccccc1[C@H]1C(C(=O)c2ccc(Cl)cc2)C2(N[C@@H]1c1ccccc1)C(=O)Nc1ccc(Br)cc12 (stereo not given in full) have growth strictly under 60%?
y

Does C#CCOc1ccc(/C=N/Nc2nc(-c3ccc(F)cc3)cs2)cc1OC have growth strictly under 60%?
y

Does COc1cc2nc(SCc3ccccc3)n(-c3ccc(Cl)cc3)c(=O)c2cc1OC have growth strictly under 60%?
y

Does CCOC(=O)c1ccc(Nc2nc(NN)nc(-c3ccc(F)cc3)c2C#N)cc1 have growth strictly under 60%?
n

Does Cc1cccc(NC(=O)CN2CCN(c3ncnc4c3cnn4-c3ccccc3)CC2)c1 have growth strictly under 60%?
n

Others:
Does CN1CCN(c2ccc3c(c2)nc(NNC(=O)c2ncccn2)c2cccn23)CC1 have growth strictly under 60%?
y

Does O=C(COc1ccc(NC(=O)Nc2ccc(Cl)c(Cl)c2)cc1)N=Nc1c(O)[nH]c2ccc(Cl)cc12 have growth strictly under 60%?
y

Does CSc1ccc(NC(=O)c2ccc3nnn(/C(C#N)=C/c4ccccn4)c3c2)cc1 have growth strictly under 60%?
y

Does Cc1cccc(Nc2nc3ccccc3nc2/C=C/c2ccc(F)cc2)c1 have growth strictly under 60%?
n

Does COc1cc(CNC(=O)/C=C/c2ccc3c(c2)OCO3)ccc1OCc1cn(-c2ccc([N+](=O)[O-])cc2)nn1 have growth strictly under 60%?
n
